Give RP-LC retention time for every item shown.
ASSAY_TEXT: gradient 5% acetonitrile 3 min, to 50% in 2 min, to 85% in 15 min, held 3 min, 100 µL/min
TEST_CONDITIONS: column: Zorbax Extend-C18 2.1 x 50 mm; eluents: water / acetonitrile, 0.1% formic acid
# output: numeric value plus its unit

Query :: // query RP-LC retention time value for entry CCOc1ccc(C(=O)N2CCN(c3ccc(=O)n(-c4ccc(C(C)C)cc4)n3)CC2)cc1
Result :: 1000 s

Query :: Param item: COc1cccc(OC)c1OCCNCC1COc2ccccc2O1 (centres undefined)
Result :: 767 s

Query :: Param item: CCn1nc(C)n2cc(S(=O)(=O)NCc3ccc(F)c(Cl)c3)cc2c1=O
Result :: 930 s

Query :: Param item: Cn1cc(C2=CCN(S(=O)(=O)c3ccc(F)c(F)c3)CC2)c2cccnc21
Result :: 981 s

Query :: Param item: CCCn1cc(CCNS(=O)(=O)c2ccc(F)c(C)c2)c2cccnc21
Result :: 893 s

Query :: Param item: COc1ccccc1CCC(=O)N1CCCn2nc(-c3cccs3)cc2C1
Result :: 702 s

Query :: Param item: Cc1cc(S(=O)(=O)N2CCC(n3cnnc3-c3ccccc3)CC2)ccc1F
Result :: 840 s

Query :: Param item: COc1ccc(C2CC(=O)N(c3cccc(Br)c3)C(=O)C2)cc1OC
Result :: 876 s

Query :: Param item: O=C1CC(c2nc(-c3ccccc3)no2)CN1c1ccc(F)cc1 (centres undefined)
Result :: 940 s

###

ASSAY_TEXT: gradient 5% acetonitrile 3 min, to 50% in 2 min, to 85% in 15 min, held 3 min, 100 µL/min
TEST_CONDITIONS: column: Zorbax Extend-C18 2.1 x 50 mm; eluents: water / acetonitrile, 0.1% formic acid
Could you mark each record Condition met if its RP-LC retention time falls strictly under 800 s, and Condition not met if it equals or exceeds it?

Query :: Dear reviewer, please state whether O=C(NCc1ccc2c(c1)OCO2)C1CCN(C(=O)c2ncn3c2COC(c2ccccc2)C3)CC1 (stereo not drawn) has RP-LC retention time strictly beneath 800 s.
Result :: Condition met

Query :: Param item: Cc1cccc(NC(=O)NC2CCN(C(=O)N3C[C@@H]4C[C@H](C3)[C@H]3CCCC(=O)N3C4)CC2)c1
Result :: Condition met

Query :: Param item: Cn1c(=O)c2c(ncn2CC(=O)N2CCC(Cc3nc(C4CCOCC4)no3)CC2)n(C)c1=O
Result :: Condition met

Query :: Param item: Cc1ccc(-c2cc(C(=O)NCCc3sccc3C)c(C)[nH]2)cc1C
Result :: Condition not met

Query :: Param item: O=C(NCc1ccccc1Cl)C1CCN(c2cnc(N3CCCC3)nc2)CC1
Result :: Condition met

Query :: Param item: CCN1C(=O)Cc2ccccc2C1C(=O)NCc1cccs1 (stereo not drawn)
Result :: Condition met

Query :: Param item: CCOC(=O)c1ccc(NC(=O)c2cc3c(=O)n(C)c4ccccc4n3n2)cc1
Result :: Condition not met

Query :: Param item: O=C(CN1CC(c2nc(-c3ncccn3)no2)C1)Nc1ccc(F)c(Cl)c1
Result :: Condition met

Query :: Param item: COc1ccc(-c2nc(NCCN3CCCCC3C)c3ccccc3n2)cc1 (stereo not drawn)
Result :: Condition met

Query :: Param item: CCN(CC)S(=O)(=O)c1ccc(NC(=O)N2CCCC(C(=O)Nc3cccc(Cl)c3)C2)s1 (stereo not drawn)
Result :: Condition not met

Query :: Param item: Cc1ccc(NC(=O)c2cn(C)nc2S(=O)(=O)N2CCSCC2)cc1
Result :: Condition not met

Query :: Param item: COCC(C)NC(=O)C(=O)Nc1ccc2c(c1)OCCO2 (stereo not drawn)
Result :: Condition met

Query :: Param item: CCc1ccc(NC(=O)N2CCC3(CC2)NC(=O)c2cc(C)ccc2N3C)cc1
Result :: Condition not met

Query :: Param item: Cc1cccc(NC(=O)Nc2ccc(C)n(CC(=O)O)c2=O)c1
Result :: Condition met

###

ASSAY_TEXT: gradient 5% acetonitrile 3 min, to 50% in 2 min, to 85% in 15 min, held 3 min, 100 µL/min
TEST_CONDITIONS: column: Zorbax Extend-C18 2.1 x 50 mm; eluents: water / acetonitrile, 0.1% formic acid
METRIC_NAME: RP-LC retention time (s)
Give just the number in s; leave the unit off.

Query :: // query RP-LC retention time value for entry CCOC(=O)c1c(C)c(C(=O)CN(CC2CCCO2)C(=O)c2ccc(Cl)cc2)c(C)n1C (stereo not drawn)
Result :: 987

Query :: Param item: Cc1ccc(C)c(-c2cc3c(=O)n(Cc4noc(-c5ccc6c(c5)OCO6)n4)ccn3n2)c1
Result :: 1120

Query :: Param item: COc1ccc(CCNC(=O)Cn2ccc3ccc(-c4nnc(C)o4)cc32)cc1OC
Result :: 715

Query :: Param item: CCNc1nc(-c2ccccc2F)no1
Result :: 761

Query :: Param item: Cc1oc2ccn(Cc3ccc(F)cc3)c(=O)c2c1C(=O)NCc1cc(F)cc(F)c1
Result :: 1130

Query :: Param item: N#Cc1ccccc1Cn1cnc2nc3c(cc2c1=O)CCCC3
Result :: 733

Query :: Param item: Cc1ccc(F)cc1NC(=O)c1cc2n(n1)CCCC2
Result :: 949

Query :: Param item: CCOc1cc(-c2ccc(Cl)cc2)nc2ccc(NC(C)=O)cc12
Result :: 686

###

ASSAY_TEXT: gradient 5% acetonitrile 3 min, to 50% in 2 min, to 85% in 15 min, held 3 min, 100 µL/min
TEST_CONDITIONS: column: Zorbax Extend-C18 2.1 x 50 mm; eluents: water / acetonitrile, 0.1% formic acid
Binning of RP-LC retention time into classes: Low = under 700 s, Mid = from 700 s up to 800 s, High = 800 s and over

Query :: Entry Cc1cc(=O)n(CC(=O)NCc2ccccc2Cl)c(N(C)Cc2ccccc2)n1 belongs to which category?
Result :: Mid

Query :: Param item: CC(C)NC(=O)C1CCN(c2nc3ccc(-c4ccc(F)cc4)nc3s2)CC1
Result :: Mid

Query :: Param item: COc1ccccc1OCC(=O)NCC1CCOCC1
Result :: Low

Query :: Param item: CCOC(=O)Oc1ccc2c(=O)c(Oc3cccc(OC)c3)coc2c1
Result :: High

Query :: Param item: CNC(=O)OCN1C(=O)C2CC=CCC2C1=O (configuration not stated)
Result :: Low

Query :: Param item: c1ccc(N2CCN(Cc3cccn3-c3nnc(N4CCCCC4)s3)CC2)nc1
Result :: Low

Query :: Param item: Cc1scc2nc(C3CCC3)nc(N3CCC(C(=O)N4CCN(c5ccccc5F)CC4)CC3)c12
Result :: High

###

ASSAY_TEXT: gradient 5% acetonitrile 3 min, to 50% in 2 min, to 85% in 15 min, held 3 min, 100 µL/min
TEST_CONDITIONS: column: Zorbax Extend-C18 2.1 x 50 mm; eluents: water / acetonitrile, 0.1% formic acid
METRIC_NAME: RP-LC retention time (s)
Give just the number in s; leave the unit off.

Query :: // query RP-LC retention time value for entry Cc1cc(N2CCN(C)CC2)nc2ccc(NC(=O)Nc3ccccc3Cl)cc12
Result :: 604

Query :: Param item: COc1cc(OC)cc(C(=O)N2CCC(C(=O)NCCc3csc(-c4cccs4)n3)CC2)c1
Result :: 792

Query :: Param item: O=C(CN1CCN(c2ccccn2)CC1)N1c2ccccc2Sc2ccccc21
Result :: 652

Query :: Param item: CCCN1C(=O)c2cc(C(=O)NCc3ccc(C)cc3)nn2CC1(C)C(=O)NC1CCCC1 (stereo unspecified)
Result :: 854

Query :: Param item: O=C(NC1CCCC1)c1nc(C(=O)N2CCN(c3ccccc3)CC2)cs1
Result :: 897

Query :: Param item: O=c1c2cnc3nc(-c4ccccc4)nn3c2ccn1CCc1c[nH]c2ccc(F)cc12
Result :: 941

###

ASSAY_TEXT: gradient 5% acetonitrile 3 min, to 50% in 2 min, to 85% in 15 min, held 3 min, 100 µL/min
TEST_CONDITIONS: column: Zorbax Extend-C18 2.1 x 50 mm; eluents: water / acetonitrile, 0.1% formic acid
Lab note: anything with RP-LC retention time at or over 900 s counts as 1; the rest go in -1.

Query :: Is reported RP-LC retention time greater than or equal to 900 s here: Fc1ccc(-n2cc(-c3noc(-c4ccccc4)n3)nn2)cc1
Result :: 1

Query :: Param item: Cc1ccc2nc(NC(=O)C3CC(=O)N(c4n[nH]c5cccc(F)c45)C3)sc2c1 (configuration not stated)
Result :: -1

Query :: Param item: COc1ccc2nc3oc(C(=O)NCCCN4CCCC(C)C4)cc3cc2c1 (configuration not stated)
Result :: 1

Query :: Param item: Cc1ccc(-c2ncccc2CNS(=O)(=O)c2cccc(F)c2)cc1
Result :: -1

Query :: Param item: O=S(=O)(c1ccc(Cl)s1)N1CCC(c2nnc(-c3ccco3)o2)CC1
Result :: -1

Query :: Param item: CCc1ccc(NC(=O)Cn2c(N3CCOCC3)nc(CC)cc2=O)cc1
Result :: -1

Query :: Param item: COC(=O)c1ncn2c1C(=O)N(Cc1ccccc1)C(C)(C(=O)NCc1ccc(C)cc1)C2 (configuration not stated)
Result :: -1

Query :: Param item: CCS(=O)(=O)N1CC(=O)N(c2ccc(Cl)cc2)C(C)(C(=O)NCc2ccccc2)C1 (configuration not stated)
Result :: -1

Query :: Param item: CCOC(=O)c1c(N)n(-c2ccccc2OC)c2nc3ccccc3nc12
Result :: -1

Query :: Param item: CN(C)C(=O)c1n[nH]c2c1CN(C(=O)c1cc(F)cc(F)c1)CC2
Result :: -1

Query :: Param item: CCN(CC)C(=O)CS(=O)Cc1cnn(-c2ccccc2)c1-n1cccc1 (configuration not stated)
Result :: -1
